Assay: NCI Yeast Anticancer Drug Screen. Data for the bub3 strain (AID 167)
Details: S. cerevisiae bub3 mutant strain, at 3.7 µM
Compounds without any hit were thinned out: in the full panel of roughly 79,000, 15% have a hit. Calls of active or inactive are those of the source. Cut-off read from the data, not from the text of the source: active = growth inhibition above about 70%; inactive = the rest.
Outcome codes: active, inactive

>  <compound>
COc1ccc(/C(=N/O)c2ccccc2C2=Nc3ccccc3C(NCc3ccccc3)O2)cc1C (stereo unspecified)

>  <label.value>
inactive

$$$$
>  <compound>
CSc1ccc2c(c1)C(N1CCN(C)CC1)Cc1ccccc1S2 (stereo unspecified)

>  <label.value>
inactive

$$$$
>  <compound>
c1ccc(N/N=C2\CC(c3ccccc3)Oc3ccccc32)cc1 (stereo unspecified)

>  <label.value>
inactive

$$$$
>  <compound>
COC(=O)C1(N2CCOCC2)CCC([C@@H](c2ccccc2)C(C)[N+](=O)[O-])C1 (stereo partly specified)

>  <label.value>
inactive

$$$$
>  <compound>
CCOC(=O)C1=C(C)NC(C)=C(C(=O)OCC)C1c1cccc([N+](=O)[O-])c1

>  <label.value>
inactive

$$$$
>  <compound>
Cc1cc(NCCCN(C)C)c2ccc3c(ccc4c(NCCCN(C)C)cc(C)nc43)c2n1

>  <label.value>
inactive

$$$$
>  <compound>
Cc1ccc(C(C)C)c(C(=C2C=CC(=[N+](C)C)C=C2)c2c(C(C)C)ccc(C)c2O)c1O

>  <label.value>
inactive

$$$$
>  <compound>
Cc1[nH]nc(C(F)(F)F)c1N=NN(C)C

>  <label.value>
inactive

$$$$
>  <compound>
Cc1ccc2nc(N/N=C/c3ccc(C)s3)cc(C)c2c1

>  <label.value>
inactive

$$$$
>  <compound>
O=[N+]([O-])C(=C(NCc1ccccc1)NCc1ccccc1)C(Cl)=C(Cl)Cl

>  <label.value>
inactive

$$$$
>  <compound>
Cc1cc(N(CCOS(C)(=O)=O)CCOS(C)(=O)=O)ccc1C=O

>  <label.value>
inactive

$$$$
>  <compound>
COc1cc(NCCCCCNC(C)C)c2ncccc2c1Cl

>  <label.value>
inactive

$$$$
>  <compound>
CCN(CC)CCSc1c2ccccc2nc2cc(NCC(=O)Nc3ccccc3-c3ccccc3NC(=O)CNc3ccc4c(SCCN(CC)CC)c5ccccc5nc4c3)ccc12

>  <label.value>
inactive

$$$$
>  <compound>
CCCCCC(=O)C(C)(c1nc2n(c1O)/C(=N/C(=O)Nc1ccc(Cl)cc1)N=N2)c1nc2n(c1O)/C(=N/C(=O)Nc1ccc(Cl)cc1)N=N2

>  <label.value>
inactive

$$$$
>  <compound>
O=C1c2ccccc2-c2ccc(NC(=O)C3CCCCC3C(=O)O)cc21 (stereo unspecified)

>  <label.value>
inactive

$$$$
>  <compound>
N=c1oc2ccccc2cc1-c1nc2ccccc2[nH]1

>  <label.value>
inactive

$$$$
>  <compound>
O=C(c1c(F)c(F)c(F)c(F)c1F)c1c(F)c(F)c(F)c(F)c1F

>  <label.value>
active

$$$$
>  <compound>
O=C1C=CC(=Nc2ccc3c(c2)Cc2cc(Cl)ccc2-3)O1

>  <label.value>
inactive

$$$$
>  <compound>
CCCC(=O)OC(OC(=O)CCC)c1ccc([N+](=O)[O-])o1

>  <label.value>
inactive

$$$$
>  <compound>
CCOc1ccccc1N1C(=O)CC(Sc2ccccc2N)C1=O (stereo unspecified)

>  <label.value>
inactive

$$$$
>  <compound>
O=CC(=C(I)I)c1ccccc1

>  <label.value>
inactive

$$$$

====

Assay: NCI Yeast Anticancer Drug Screen. Data for the wt2 strain (AID 169);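 note: 0% = growth of vehicle-treated yeast cultures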
Details: S. cerevisiae wt2 strain growth inhibition; at 33.0 µM
The panel holds about 79,000 compounds, 15% with a hit somewhere; the sample as a whole holds those more often. Active and inactive are the calls of the source. Cut-off read from the data, not from the text of the source: active = growth inhibition above about 70%; inactive = the rest.
Outcome codes: true for active, false for inactive

>  <compound>
[O-]c1c2cc(-[n+]3c(-c4ccccc4)cc(-c4ccccc4)cc3-c3ccccc3)cc1COCCOCCOCCOCCOC2

>  <label.value>
false

$$$$
>  <compound>
CC[C@]1(O)C[C@H]2CN(CCc3c([nH]c4ccccc34)[C@@](C(=O)OC)(c3cc4c(cc3OC)N(C)[C@H]3[C@@](O)(C(=O)OC)[C@H](OC(C)=O)[C@]5(CC)C=CCN6CC[C@]43[C@@H]65)C2)C1

>  <label.value>
false

$$$$
>  <compound>
O=S(=O)(O)c1ccc2c(N=Nc3c(O)ccc4ccccc34)cccc2c1

>  <label.value>
false

$$$$
>  <compound>
O=C(O)NCC1CCCCC1 (tested in a mixture with another compound)

>  <label.value>
false

$$$$
>  <compound>
CCOc1ccccc1N1C(=O)CC(Sc2ccccc2N)C1=O (centres undefined)

>  <label.value>
false

$$$$
>  <compound>
COc1ccc(CCN2C(=O)C=CC2=O)cc1OC

>  <label.value>
true

$$$$
>  <compound>
CC(=O)c1ccc(NCN2C(=O)c3ccccc3C2=O)cc1

>  <label.value>
false

$$$$
>  <compound>
Cc1ccc(C(C)C)c(C(=C2C=CC(=[N+](C)C)C=C2)c2c(C(C)C)ccc(C)c2O)c1O

>  <label.value>
true

$$$$
>  <compound>
OC1C#CCSCC#C/C=C\1 (centres undefined)

>  <label.value>
false

$$$$

====

Test: NCI Yeast Anticancer Drug Screen. Data for the bub3 strain (AID 167)
Conditions: S. cerevisiae bub3 mutant strain, at 100.0 µM, hits give high values
The panel holds about 79,000 compounds, 15% with a hit somewhere; the sample as a whole holds those more often. Starred links: 1 amine or outer side, 2 acyl side, 3 side chain; linkers in the order of their positions; H or OH if unused. Positions of bridges follow the written chain, without caps; N, C: chain ends. Non-standard residues stand in square brackets, D forms with d. Residues, ends and D or L forms follow the SMILES beside them. Chains are numbered I, II in the order given. Actinocin(9to1) = Cc1c2oc3c(C)ccc(C(=O)[*:1])c3nc-2c(C(=O)[*:2])c(N)c1=O; aThr = C[C@H](O)[C@H](N)C(=O)O; NMeV = CN[C@H](C(=O)O)C(C)C; Sar = CNCC(=O)O
Output 1.0 for growth inhibition not less than 80%; output 0.0 otherwise.

>  <compound>
O=Cn1c2ccccc2c2ccccc21

>  <label.value>
0.0

$$$$
>  <compound>
Nc1ccc2cc(Br)c3ccccc3c2c1

>  <label.value>
0.0

$$$$
>  <compound>
CC(C)OC(CCC#N)c1ccc(Cl)cc1 (stereo unspecified)

>  <label.value>
0.0

$$$$
>  <compound>
Oc1ccc(Br)cc1C=Nc1cccc(C(F)(F)F)c1

>  <label.value>
0.0

$$$$
>  <compound>
CCCC#CCOC(=O)c1cc([N+](=O)[O-])cc([N+](=O)[O-])c1

>  <label.value>
1.0

$$$$
>  <compound>
COc1ccc(C(=O)OCCc2ccccc2)cc1

>  <label.value>
0.0

$$$$
>  <compound>
OC(c1ccc(Br)cc1)(c1cccs1)C1CC1 (stereo unspecified)

>  <label.value>
1.0

$$$$
>  <compound>
CN(NC(=O)/C(=C/C=C/c1ccccc1)NC(=O)c1ccccc1)C1=C(Cl)C(=O)[N+](c2ccccc2)=CC1

>  <label.value>
0.0

$$$$
>  <compound>
CCCCCCCCCCCCCCCCCN

>  <label.value>
1.0

$$$$
>  <compound>
Cc1c2oc3c(C)ccc(C(=O)N[C@@H]4C(=O)N[C@H](C(C)C)C(=O)N5CCC[C@H]5C(=O)N(C)CC(=O)N(C)[C@@H](C(C)C)C(=O)O[C@H]4C)c3nc-2c(C(=O)N[C@@H]2C(=O)N[C@H](C(C)C)C(=O)N3CCC[C@H]3C(=O)N(C)CC(=O)N(C)[C@@H](C(C)C)C(=O)O[C@H]2C)c(N)c1=O (I: [aThr][dV]P[Sar][NMeV] / II: [aThr][dV]P[Sar][NMeV]; ester I:1-I:C, II:1-II:C; linker I:N-II:N via Actinocin(9to1))

>  <label.value>
1.0

$$$$
>  <compound>
Cc1ccc2nc(N/N=C/c3ccc(C)s3)cc(C)c2c1

>  <label.value>
1.0

$$$$
>  <compound>
O=C(O)CN(CCNC(=O)OCC1c2ccccc2-c2ccccc21)CCNC(=O)OCC1c2ccccc2-c2ccccc21

>  <label.value>
1.0

$$$$
>  <compound>
CCOc1ccc2ccc3cccnc3c2n1

>  <label.value>
0.0

$$$$
>  <compound>
O=[N+]([O-])c1ccc2nnnn2c1

>  <label.value>
0.0

$$$$
>  <compound>
Cc1ccnc(NS(=O)(=O)c2ccc(Nc3c4ccccc4nc4ccccc34)cc2)n1

>  <label.value>
0.0

$$$$
>  <compound>
CNC(=O)OCc1c(COC(=O)NC)c(C)n(-c2ccc(Cl)c(Cl)c2)c1C

>  <label.value>
1.0

$$$$
>  <compound>
O=C1C(C(O)(C(F)(F)F)C(F)(F)F)CCC1C(O)(C(F)(F)F)C(F)(F)F (stereo unspecified)

>  <label.value>
0.0

$$$$
>  <compound>
O=C1c2ccccc2C2CCC1c1ccccc12 (stereo unspecified)

>  <label.value>
1.0

$$$$
>  <compound>
CN(C)N=Nc1ccc(NC=O)cc1

>  <label.value>
1.0

$$$$
>  <compound>
COc1ccc2c(Cc3c4ccccc4cc4ccccc34)cncc2c1O

>  <label.value>
1.0

$$$$
>  <compound>
O=C1C=CC(=Nc2ccc3c(c2)Cc2cc(Cl)ccc2-3)O1

>  <label.value>
1.0

$$$$
>  <compound>
O=Cc1ccccc1B(O)O

>  <label.value>
1.0

$$$$
>  <compound>
N#C/C(=C1C=C/C(=N\O)C(Cl)=C\1)c1ccccc1

>  <label.value>
0.0

$$$$
>  <compound>
N=c1oc2ccccc2cc1-c1nc2ccccc2[nH]1

>  <label.value>
0.0

$$$$
>  <compound>
O=C(O)/C=C\C(=O)NNc1ccc(Br)cc1

>  <label.value>
1.0

$$$$
>  <compound>
CC1=NN(C(=O)CC(=O)N(C(=O)c2ccccc2)c2ccc(Cl)cc2)C(=O)C1N=Nc1ccc([N+](=O)[O-])cc1 (stereo unspecified)

>  <label.value>
0.0

$$$$
>  <compound>
CCOC(=O)c1sc2[n+](c1C)C(=O)/C(=C/c1cc(OC)c(OC)c(OC)c1)S2

>  <label.value>
0.0

$$$$
>  <compound>
O=C1C=CC(=O)N1c1ccc(Br)cc1Cl

>  <label.value>
1.0

$$$$
>  <compound>
CCOC(=O)/C(O)=C(/C=N/C(=S)Nc1c(CC)cccc1CC)C(=O)OCC

>  <label.value>
0.0

$$$$
>  <compound>
CC[C@]1(O)C[C@H]2CN(CCc3c([nH]c4ccccc34)[C@@](C(=O)OC)(c3cc4c(cc3OC)N(C)[C@H]3[C@@](O)(C(=O)OC)[C@H](OC(C)=O)[C@]5(CC)C=CCN6CC[C@]43[C@@H]65)C2)C1

>  <label.value>
0.0

$$$$
>  <compound>
Cc1cc(NC(=S)SCc2ccc(Cl)cc2)ccc1Cl

>  <label.value>
1.0

$$$$
>  <compound>
CCOc1nc(OCC)nc(-c2cccn2-c2ccccc2)n1

>  <label.value>
1.0

$$$$
>  <compound>
CCSc1c2ccccc2c(-c2nc(F)nc(F)n2)n1CCc1ccccc1

>  <label.value>
1.0

$$$$
>  <compound>
Cc1ccccc1C1=C(CC(=O)O)c2ccccc2CC1C (stereo unspecified)

>  <label.value>
1.0

$$$$
>  <compound>
O=c1oc(C(C(F)(F)F)C(F)(F)F)nc2ccccc12

>  <label.value>
0.0

$$$$
>  <compound>
Clc1ccc(C(c2ccc(Cl)cc2)N2CCNCC2)cc1

>  <label.value>
1.0

$$$$
>  <compound>
O=C(/C(=C/c1ccccc1)CBr)c1ccccc1

>  <label.value>
1.0

$$$$
>  <compound>
O=C1OC(c2ccc(Cl)cc2)Sc2ccccc21 (stereo unspecified)

>  <label.value>
1.0

$$$$
